# System: NCI-H460 lung
# experiment: NCI-60 one-dose screen, 48 h (100 = growth as untreated, 0 = no growth, -100 = all killed)
# condition-summary: 10 µM unless noted
About 83,000 compounds went through this panel and 20% of them were active in at least one assay; those are over-represented in the sample as a whole.
Note to self: use fulfilled only for growth readings below 30%; a reading exactly at 30% still gets not fulfilled.

compound: CCCCC[C@H]1C/C=C2/C(=O)C=C[C@@H]2C/C=C\CCCC(=O)O[C@@H](CCCCC)C/C=C2/C(=O)C=C[C@@H]2C/C=C\CCCC(=O)O1
category-label: fulfilled
--
compound: Cn1cc(-c2csc(-c3cn(C(=O)OC(C)(C)C)c4ccccc34)n2)c2cccnc21
category-label: not fulfilled
--
compound: CCCC(=O)N1CCCCC1CC (stereo not given)
category-label: not fulfilled
--
compound: NC1=NN=C2N(N)C(=O)c3cnn(-c4ccccc4)c3N2c2nc(-c3ccccc3)cc(-c3ccccc3)c21
category-label: not fulfilled
--
compound: COc1cc2c3c(c4c5ccccc5[nH]c4c2c(OC)c1OC)C(=O)N(O)C3=O
category-label: fulfilled
--
compound: C/C(=N\Nc1cc(C)c2ccccc2n1)c1ccccn1
category-label: fulfilled
--
compound: N#CC1=C(N)Oc2ccc3ccccc3c2C1c1ccccc1 (stereo not given)
category-label: fulfilled
--
compound: COc1ccc(/C=C/C(=O)c2ccc([N+](=O)[O-])cc2)cc1
category-label: not fulfilled
--
compound: COc1cccc(-c2nn(-c3ccccc3)cc2-c2ccnc(NCCNS(=O)(=O)c3ccccc3)c2)c1
category-label: fulfilled
